- targetOfAssay: AChE from E. electricus (Electrophorus electricus, UniProt O42275)
- Construct: purchased Sigma Aldrich
- Sequence (O42275 24-633): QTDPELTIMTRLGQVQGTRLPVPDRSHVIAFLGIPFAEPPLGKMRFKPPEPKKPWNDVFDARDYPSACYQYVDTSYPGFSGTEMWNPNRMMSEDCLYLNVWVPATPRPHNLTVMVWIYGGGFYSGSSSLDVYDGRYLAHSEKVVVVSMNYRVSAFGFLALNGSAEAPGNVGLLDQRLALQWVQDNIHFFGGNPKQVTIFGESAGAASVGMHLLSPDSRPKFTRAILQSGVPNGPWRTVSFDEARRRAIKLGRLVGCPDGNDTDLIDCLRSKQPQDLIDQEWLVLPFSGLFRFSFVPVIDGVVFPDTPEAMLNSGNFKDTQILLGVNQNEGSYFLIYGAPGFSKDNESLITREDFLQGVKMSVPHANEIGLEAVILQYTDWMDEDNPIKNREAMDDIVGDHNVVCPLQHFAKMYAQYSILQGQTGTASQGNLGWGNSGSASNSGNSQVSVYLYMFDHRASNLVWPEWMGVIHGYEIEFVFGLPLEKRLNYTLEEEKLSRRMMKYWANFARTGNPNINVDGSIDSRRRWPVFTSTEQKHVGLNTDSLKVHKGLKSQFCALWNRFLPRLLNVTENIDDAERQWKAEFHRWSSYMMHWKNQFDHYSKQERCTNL
- procedureDetails: biochemical
- protocolConditions: Ellman's method, 25°C, mean ± SEM of three experiments; read-out: IC50 (μM) AChE
propertyLabel: IC50 (µM)
One number for each entry, in µM.

For orientation, consider the following solved cases.
Cc1cccc(C[n+]2ccc(-c3oc4ccccc4c3N)cc2)c1; 3.32
Nc1c(-c2cc[n+](Cc3cccc(Br)c3)cc2)oc2ccccc12; 4.47
Nc1c(-c2cc[n+](Cc3ccccc3[N+](=O)[O-])cc2)oc2ccccc12; 7.84
Nc1c(-c2cc[n+](Cc3cccc(Cl)c3)cc2)oc2ccccc12; 2.99
Nc1c(-c2cc[n+](Cc3ccc(Cl)cc3)cc2)oc2ccccc12; 16.6

Below are some molecules; for each one, tell me its IC50.
1. Cc1ccc(C[n+]2ccc(-c3oc4ccccc4c3N)cc2)cc1
2. Nc1c(-c2cc[n+](Cc3ccc([N+](=O)[O-])cc3)cc2)oc2ccccc12
3. Nc1c(-c2cc[n+](Cc3ccc(Br)cc3)cc2)oc2ccccc12
4. Cc1ccccc1C[n+]1ccc(-c2oc3ccccc3c2N)cc1
5. COc1cccc(C[n+]2ccc(-c3oc4ccccc4c3N)cc2)c1
6. Nc1c(-c2cc[n+](Cc3cccc(F)c3)cc2)oc2ccccc12

29.3
20.6
15.8
3.29
81.1
1.68

====

Answer each item with its documented IC50.
- targetOfAssay: horse serum BuChE (eqBuChE) (Equus caballus)
- Construct: horse serum BuChE (eqBuChE, Sigma-Aldrich); purchased Sigma-Aldrich; host or cells: horse serum
- Sequence (P81908 whole entry): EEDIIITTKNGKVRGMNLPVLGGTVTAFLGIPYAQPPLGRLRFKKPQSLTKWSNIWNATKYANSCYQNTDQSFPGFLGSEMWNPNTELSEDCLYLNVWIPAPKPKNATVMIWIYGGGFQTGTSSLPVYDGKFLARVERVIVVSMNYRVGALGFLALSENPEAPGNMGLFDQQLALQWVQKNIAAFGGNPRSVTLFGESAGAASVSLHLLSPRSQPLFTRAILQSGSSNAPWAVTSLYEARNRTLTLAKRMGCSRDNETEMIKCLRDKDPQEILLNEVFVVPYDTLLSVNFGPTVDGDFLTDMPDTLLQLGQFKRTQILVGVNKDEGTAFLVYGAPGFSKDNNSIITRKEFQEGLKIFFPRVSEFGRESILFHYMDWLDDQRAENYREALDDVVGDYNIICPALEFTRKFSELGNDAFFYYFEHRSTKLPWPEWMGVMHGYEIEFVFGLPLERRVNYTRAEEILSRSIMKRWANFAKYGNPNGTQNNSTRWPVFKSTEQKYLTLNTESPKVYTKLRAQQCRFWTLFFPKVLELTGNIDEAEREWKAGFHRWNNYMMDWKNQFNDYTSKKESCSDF
- procedureDetails: biochemical
- protocolConditions: Ellman's method, 25°C, mean ± SEM of three experiments
One number for each entry, in µM.

Cc1cccc(C[n+]2ccc(-c3oc4ccccc4c3N)cc2)c1; 12.9
Nc1c(-c2cc[n+](Cc3ccc(Cl)cc3)cc2)oc2ccccc12; 31.2
Nc1c(-c2cc[n+](Cc3ccc(Br)cc3)cc2)oc2ccccc12; 22.6
Nc1c(-c2cc[n+](Cc3ccccc3)cc2)oc2ccccc12; 0.82

Attention now turns to another entry.
Consider the compound "Cc1ccc(C[n+]2ccc(-c3oc4ccccc4c3N)cc2)cc1" and give its measured IC50.
25.3

====

- targetOfAssay: Aβ1–42 (Homo sapiens)
- Construct: Aβ1–42 (Sigma A9810); purchased Sigma A9810
- Sequence (P05067 672-713 limits assumed): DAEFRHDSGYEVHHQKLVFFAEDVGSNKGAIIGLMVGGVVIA
- procedureDetails: Inhibition of self-induced Aβ1–42 aggregation (thioflavin T assay)
- Type: biochemical
- protocolConditions: compound at 10 μM, ThT assay, mean ± SEM of three experiments; read-out: Inhibition of Aβ aggregation (%) Self-induced
propertyLabel: inhibition at 10 µM

Nc1c(-c2cc[n+](Cc3ccccc3F)cc2)oc2ccccc12.[Cl-] [5f]; 29.8%
Nc1c(-c2cc[n+](Cc3ccccc3)cc2)oc2ccccc12 [5a]; 17.6%
Nc1c(-c2cc[n+](Cc3ccccc3Cl)cc2)oc2ccccc12 [5i]; 24.8%
Nc1c(-c2cc[n+](Cc3ccccc3Br)cc2)oc2ccccc12 [5l]; 25.7%

Attention now turns to another entry.
Consider the molecule Nc1c(-c2cc[n+](Cc3ccc(F)cc3)cc2)oc2ccccc12.[Cl-] [5h] and give its measured inhibition at 10 µM.
38.8%

====

Answer each item with its documented inhibition at 100 µM.
- targetOfAssay: Aβ1–42 and human recombinant AChE (Homo sapiens, UniProt P22303)
- Construct: Aβ1–42 (Sigma A9810); purchased Sigma C1682 (AChE); A9810 (Aβ1–42)
- Sequence (P22303 32-614): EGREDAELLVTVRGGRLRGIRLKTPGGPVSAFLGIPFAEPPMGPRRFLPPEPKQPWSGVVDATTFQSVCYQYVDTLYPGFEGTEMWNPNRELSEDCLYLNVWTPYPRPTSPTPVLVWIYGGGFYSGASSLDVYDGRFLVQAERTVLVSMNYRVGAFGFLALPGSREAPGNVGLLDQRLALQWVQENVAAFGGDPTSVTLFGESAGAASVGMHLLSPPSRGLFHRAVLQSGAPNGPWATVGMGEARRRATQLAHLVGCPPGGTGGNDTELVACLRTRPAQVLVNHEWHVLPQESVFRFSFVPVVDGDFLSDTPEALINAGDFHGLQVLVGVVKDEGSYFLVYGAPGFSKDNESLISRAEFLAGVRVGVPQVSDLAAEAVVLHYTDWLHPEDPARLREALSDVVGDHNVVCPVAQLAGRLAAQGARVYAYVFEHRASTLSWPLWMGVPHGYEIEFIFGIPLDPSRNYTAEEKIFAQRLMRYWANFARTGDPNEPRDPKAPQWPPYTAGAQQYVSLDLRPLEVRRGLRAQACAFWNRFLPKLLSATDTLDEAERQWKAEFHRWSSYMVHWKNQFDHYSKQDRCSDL
- procedureDetails: Inhibition of AChE-induced Aβ1–42 aggregation (thioflavin T assay)
- Type: biochemical
- protocolConditions: read-out: Inhibition of Aβ aggregation (%) AChE-induced

For orientation, consider the following solved cases.
Nc1c(-c2cc[n+](Cc3ccccc3Br)cc2)oc2ccccc12 [5l]; 22.4%
Nc1c(-c2cc[n+](Cc3ccccc3)cc2)oc2ccccc12 [5a]; 22.4%
Nc1c(-c2cc[n+](Cc3ccccc3Cl)cc2)oc2ccccc12 [5i]; 26.5%
Nc1c(-c2cc[n+](Cc3ccccc3F)cc2)oc2ccccc12.[Cl-] [5f]; 30.1%

Missing value: inhibition at 100 µM, Aβ1–42 and human recombinant AChE (Homo sapiens, UniProt P22303), entry Nc1c(-c2cc[n+](Cc3ccc(F)cc3)cc2)oc2ccccc12.[Cl-] [5h] . Fill in?
35.6%
